Assay: Metabolic stability in mouse liver microsomes assessed as intrinsic clearance
Assay type: ADME, Microsome
propertyMeasured: CLH (mL/min/kg)
One number for each entry, in mL/min/kg.

1. Cc1cc(Cl)ccc1-c1ccc(N2CCc3c(C)ccc(N4CCN(C)CC4)c3C2)nc1; 0.035
2. Cc1cc(Cl)ccc1-c1ccc(NC(=O)N2CCc3c(F)ccc(N4CCN(C)CC4)c3C2)nc1; 0.065
3. Cc1cc(Cl)ccc1-c1ccc(CN2CCc3c(C)ccc(N4CCN(C)CC4)c3C2)nc1; 0.239
4. Cc1ccc(N2CCN(C)CC2)c2c1CCN(C(=O)N1CCC(Oc3ccc(OC(F)(F)F)cc3)CC1)C2; 0.04
5. CCc1ccc(N2CCN(C)CC2)c2c1CCN(C(=O)Nc1ccc(-c3ccc(C(F)(F)F)cc3)cn1)C2; 0.81
6. Cc1ccc(N2CCN(C)CC2)c2c1CCN(c1ccc(-c3ccc(C(C)(C)C)cc3)cn1)C2; 0.056
7. COc1ccc(N2CCN(C)CC2)c2c1CCN(C(=O)Nc1ccc(-c3ccc(Cl)cc3Cl)cn1)C2; 0.584

Here is the next item to consider.
What value of measured CLH is listed for CN1CCN(c2cccc3c2CN(Cc2ccc(-c4ccc(Cl)cc4)cn2)CC3)CC1 ?
0.238
